# Assay Target: Cytochrome P450 1B1 (Homo sapiens)
# Sequence (Q16678 whole entry): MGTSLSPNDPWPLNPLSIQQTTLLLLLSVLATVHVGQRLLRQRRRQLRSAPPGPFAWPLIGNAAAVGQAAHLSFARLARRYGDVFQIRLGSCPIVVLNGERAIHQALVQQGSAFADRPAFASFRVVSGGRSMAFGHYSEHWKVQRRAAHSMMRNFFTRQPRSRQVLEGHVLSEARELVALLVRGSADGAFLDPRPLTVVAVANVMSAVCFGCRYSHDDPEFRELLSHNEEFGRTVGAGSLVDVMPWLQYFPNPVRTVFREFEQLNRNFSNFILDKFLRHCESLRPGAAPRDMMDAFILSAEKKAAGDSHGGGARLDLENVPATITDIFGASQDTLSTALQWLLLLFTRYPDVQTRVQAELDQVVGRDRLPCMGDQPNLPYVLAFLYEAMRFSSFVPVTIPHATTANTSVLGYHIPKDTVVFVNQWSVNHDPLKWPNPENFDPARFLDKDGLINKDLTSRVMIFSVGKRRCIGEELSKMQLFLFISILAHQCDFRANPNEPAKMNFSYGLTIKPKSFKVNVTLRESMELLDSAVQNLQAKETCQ
# Assay Comment: Inhibition of recombinant human CYP1B1 using 7-ethoxyresorufin as substrate after 35 mins in presence of NADP+ by EROD assay
pIC50: −log10 of the molar value.
Readout Label: pIC50

- Structure: "COc1ccc(OC)c2c1c(OC)cc1c(=O)cc(-c3cc(Cl)cc(N4CCN(C)CC4)c3)oc12"
  Assay Target: "Cytochrome P450 1B1 (Homo sapiens)"
  Recorded Number: 6.28
- Structure: "COc1ccc(OC)c2c1c(OC)cc1c(=O)cc(-c3cccs3)oc12"
  Assay Target: "Cytochrome P450 1B1 (Homo sapiens)"
  Recorded Number: 8.32
- Structure: "COc1ccc(OC)c2c1c(OC)cc1c(=O)cc(-c3ccc4ncccc4c3)oc12"
  Assay Target: "Cytochrome P450 1B1 (Homo sapiens)"
  Recorded Number: 8.74

I: COc1ccc(OC)c2c1c(OC)cc1c(=O)cc(-c3cccc(O)n3)oc12
II: COc1ccc(OC)c2c1c(OC)cc1c(=O)cc(-c3ccc4[nH]ncc4c3)oc12
III: COc1ccc(OC)c2c1c(OC)cc1c(=O)cc(-c3ccnc(Br)c3)oc12
IV: COc1ccc(OC)c2c1c(OC)cc1c(=O)cc(-c3ccc(N)nc3)oc12
input: Order the entries by their reported pIC50, beginning at the minimum. Returns: the labels listed in the requested order.
output: I, II, IV, III
(I: 8.11, II: 8.70, IV: 9.01, III: 9.34)

P: COc1ccc(OC)c2c1c(OC)cc1c(=O)cc(-c3ccnnc3)oc12
Q: COc1ccc(OC)c2c1c(OC)cc1c(=O)cc(-c3ccc(O)nc3)oc12
input: Please indicate which item has the smaller measured pIC50: P versus Q Refer to your chosen entry by its label in the reply.
output: Q
(Q: 6.18, P: 8.70)
